# Test system: M14 melanoma
# test: NCI tumour cell line growth inhibition, 48 h; in the data active = GI50 below about 0.43 µM; inactive = the rest
Classes used: active, inactive

>>> df
                                item_smiles  category_label
0  Cc1cn2c(/C=C3\C(=O)N(C)c4ccc(O)cc43)c(C)nc2s1        inactive
1  Cc1cc2c(cc1Cl)SC(=Nc1ccc(Cl)cc1)N(S(=O)(=O)c1ccccc1)S2(=O)=O        inactive
2  COc1ccc(C(=O)COc2cccc(/C=C3\Oc4ccc5ccccc5c4C3=O)c2)cc1        inactive
3  COc1ccc2ncn(-c3cc(O[C@H](C)c4ccccc4Cl)c(C(N)=O)s3)c2c1          active
4  C=C1C(=O)O[C@H]2[C@H]1CC/C(COC(=O)c1ccc(Cl)nc1)=C\CC[C@@]1(C)O[C@@H]21        inactive

---

# Tested on: UO-31 renal
# test: NCI tumour cell line growth inhibition, 48 h
Examples of molecules with documented GI50 follow.
measure: GI50

>>> print(df.to_string())
                                   molecule  measure   result
0  COc1cccc(/C(COc2ccc3c(c2)oc(=O)c2cc(OC)ccc23)=N/O)c1     GI50  7.11 µM
1  COc1ccc2c(c1)C(C)Cc1c(ncnc1-n1c(C)nc3ccccc31)N2C (centres undefined)     GI50  4.59 µM
2        CCC(C)(C)c1ccc(OCCCCCCN2CCNCC2)cc1     GI50  1.93 µM
3  C=C1C(=O)O[C@H]2[C@H]1CC/C(COC(=O)c1ccc(Cl)nc1)=C\CC[C@@]1(C)O[C@@H]21     GI50  1.37 µM

---

# Test system: NCI/ADR-RES ovarian
# test: NCI tumour cell line growth inhibition, 48 h

molecule	TGI
OCC1OC(n2cnc3c(Cl)nc(Nc4ccccc4)nc32)CC1O (stereo unspecified)	> 100 µM
COC(=O)[C@H](Cc1ccccc1)NC(=O)[C@H](Cc1ccccc1)NC(=O)[C@@H]1CCCN1C(=O)N[C@H]1C2C=CC(C2)C1C(=O)N1CCC[C@H]1C(=O)N[C@@H](C)C(=O)N[C@H](C(=O)OC)C(C)C (stereo partly specified)	> 100 µM
N#CC(=NCCO)C1=C(O)c2ccccc2C1=O	> 100 µM
CCCCC1(CN2CCOCC2)S/C(=N/c2nc(CC(=O)OCC)cs2)NC1=O (stereo unspecified)	> 100 µM
O=[N+]([O-])c1ccc2c(c1)C(c1ccccc1Cl)=Nc1cn[nH]c1N2	> 25 µM
CCc1ccc2oc(-c3cc(O)c(-c4nc5cc(CC)ccc5o4)cc3O)nc2c1	> 100 µM

---

Examples of molecules with documented TGI follow.
# Tested on: RPMI-8226 leukemia
# test: NCI tumour cell line growth inhibition, 48 h
Where a SMILES comes first, the peptide text is derived from it. The star is where a group is joined. X36 = O=C(c1ccc(-c2ccc(Cl)cc2Cl)o1)*
measure: TGI

molecule	result
O=C(Cc1ccccc1)NN1C(=O)C(Cl)C1c1ccc(O)cc1 (stereo not given)	> 100 µM
COc1cc(C2SCC(=O)N2c2ccc(-c3ccc(-n4c(-c5ccccc5)nc5ccccc5c4=O)cc3)cc2)cc(OC)c1OC (stereo not given)	> 100 µM
CCC(C)C(NC(=O)CNC(=O)C(Cc1ccccc1)NC(=O)C1CCCN1C(=O)c1ccc(-c2ccc(Cl)cc2Cl)o1)C(=O)OC (stereo not given) (X36-PFGI-OMe; configuration not given here)	> 100 µM
Cc1cc(I)cc(CN(C)CCCN2CCOCC2)c1O	46 µM
O=C(CSc1nnc(Cc2ccccc2)o1)Nc1ccc([N+](=O)[O-])cc1	> 100 µM
N#CC(=NCCO)C1=C(O)c2ccccc2C1=O	> 100 µM
Cc1[nH]c(=O)[nH]c(=O)c1/C=C/C(=O)O	> 1000 µM
COC(=O)/C(C)=C/[N+](=O)[O-]	7.36 µM
COc1ccc(O)cc1	> 100 µM
COc1ccc2c(O)cc3c(c2c1)[C@H](CCl)CN3C(=O)c1cc2cc(NC(=O)CCN3CCOCC3)ccc2[se]1	0.0263 µM
CCc1ccc2oc(-c3cc(O)c(-c4nc5cc(CC)ccc5o4)cc3O)nc2c1	> 100 µM
COc1cccc(C2CC(C)=Nc3c(ccc4c3C(=O)c3ccccc3C4=O)N2)c1O (stereo not given)	> 100 µM
COC(=O)C1=C2SCc3cccc(c3)CSC3=C(C(=O)OC)SC(=C(S2)S1)S3	> 100 µM
CC1=COC(C)(C=C(C#N)C#N)CC1 (stereo not given)	> 100 µM
Cc1cc(C)c(C2[C@H]3C(=O)N(c4ccc(Cc5ccc(N6C(=O)[C@@H]7ON(c8ccccc8)C(c8c(C)cc(C)cc8C)[C@@H]7C6=O)cc5)cc4)C(=O)[C@H]3ON2c2ccccc2)c(C)c1 (stereo not given in full)	> 100 µM

These measurements were taken from PubChem BioAssay (NCI).
